The values you see were collected from ChEMBL document CHEMBL5214932.

Examples of compounds with documented IC50 follow.
# Tested on: DU-145
# measurement.description: Cytotoxicity against human DU-145 cells assessed as cell growth inhibition
# Type: functional, cell-based
quantity: IC50 (µM)

INSERT INTO measurements (chemical_string, units_of_measure, assay_result) VALUES
  ('Cc1ccc(Cl)cc1-c1nc(N)nc(Nc2ccc(Br)cc2)n1', 'µM', 0.07),
  ('CCOc1ccc(Cl)cc1-c1nc(N)nc(Nc2ccc(Cl)cc2)n1', 'µM', 0.03),
  ('CCOc1ccc(Cl)cc1-c1nc(N)nc(Nc2ccc(CO)cc2)n1', 'µM', 0.025);

* * *

# experimental.target: Equilibrative nucleoside transporter 2 (Homo sapiens)
# Sequence (Q14542 whole entry): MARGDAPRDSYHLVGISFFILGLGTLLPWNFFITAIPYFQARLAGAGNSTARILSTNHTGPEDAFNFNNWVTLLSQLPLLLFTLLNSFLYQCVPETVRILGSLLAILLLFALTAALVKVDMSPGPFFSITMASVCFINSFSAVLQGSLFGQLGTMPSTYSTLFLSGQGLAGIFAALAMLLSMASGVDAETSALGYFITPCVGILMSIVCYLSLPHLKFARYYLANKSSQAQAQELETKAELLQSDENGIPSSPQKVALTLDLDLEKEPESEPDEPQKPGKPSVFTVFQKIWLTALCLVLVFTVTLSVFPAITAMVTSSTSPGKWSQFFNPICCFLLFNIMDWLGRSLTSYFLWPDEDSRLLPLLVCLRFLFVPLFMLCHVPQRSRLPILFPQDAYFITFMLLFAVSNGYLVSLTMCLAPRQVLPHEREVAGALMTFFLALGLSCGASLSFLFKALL
# measurement.description: Inhibition of human ENT2 transfected in nucleoside transporter-deficient pig PK-15 cells assessed as inhibition of [3H]-uridine uptake by liquid scintillation counter analysis
# Assay type: cell-based
pIC50: −log10 of the molar value.
quantity: pIC50

INSERT INTO measurements (chemical_string, assay_result) VALUES
  ('Nc1nc(CN2CCN(c3ccccc3F)CC2)nc(Nc2cccc3ccccc23)n1', 5.77),
  ('Cc1cccc(Nc2nc(N)nc(CN3CCN(c4ccc(F)cc4)CC3)n2)c1', 6.24),
  ('COc1ccc(Nc2nc(N)nc(CN3CCN(c4ccccc4F)CC3)n2)cc1', 4.11);

* * *

# System: Human immunodeficiency virus 1
# measurement.description: Antiviral activity against NNRTI resistant HIV1 harboring Leu100IIe mutant infected in human MT4 cells assessed as reduction in virus-induced cytopathic effect measured after 5 days by MTT assay
# Format: functional, organism-based
# experimental.conditions: Human immunodeficiency virus 1, MT4, 120 h
Examples of molecules with documented IC50 follow.
quantity: IC50 (nM)

INSERT INTO results (chemical_string, quantity, units_of_measure, assay_result) VALUES
  ('Cc1cc(C)c(Cc2nc(N)nc(Nc3ccc(C#N)cc3)n2)c(C)c1', 'IC50', 'nM', 82),
  ('N#Cc1ccc(Nc2nc(N)nc(Cc3c(Cl)ccc4[nH]ccc34)n2)cc1', 'IC50', 'nM', 1000),
  ('N#Cc1ccc(Nc2nc(N)nc(Cc3c(Cl)cccc3Cl)n2)cc1', 'IC50', 'nM', 293);

* * *

# experimental.target: Free fatty acid receptor 1 (Homo sapiens, UniProt O14842)
# Sequence (O14842 whole entry): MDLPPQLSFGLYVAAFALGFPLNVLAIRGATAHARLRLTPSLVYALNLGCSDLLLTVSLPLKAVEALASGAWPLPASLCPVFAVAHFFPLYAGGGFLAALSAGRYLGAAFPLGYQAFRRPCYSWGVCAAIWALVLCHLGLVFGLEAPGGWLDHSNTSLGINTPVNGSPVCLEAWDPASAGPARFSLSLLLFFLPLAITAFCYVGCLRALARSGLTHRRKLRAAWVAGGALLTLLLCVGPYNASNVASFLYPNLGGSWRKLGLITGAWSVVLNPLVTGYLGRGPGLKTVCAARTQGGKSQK
# measurement.description: Positive allosteric modulation of GPR40 (unknown origin)
quantity: EC50 (nM)

INSERT INTO measurements (chemical_string, quantity, assay_result) VALUES
  ('Cc1ccccc1Nc1nc(N)nc(COc2ccc3c(C)cc(=O)oc3c2)n1', 'EC50', 776);

* * *

# experimental.target: Equilibrative nucleoside transporter 1 (Homo sapiens)
# Sequence (Q99808 whole entry): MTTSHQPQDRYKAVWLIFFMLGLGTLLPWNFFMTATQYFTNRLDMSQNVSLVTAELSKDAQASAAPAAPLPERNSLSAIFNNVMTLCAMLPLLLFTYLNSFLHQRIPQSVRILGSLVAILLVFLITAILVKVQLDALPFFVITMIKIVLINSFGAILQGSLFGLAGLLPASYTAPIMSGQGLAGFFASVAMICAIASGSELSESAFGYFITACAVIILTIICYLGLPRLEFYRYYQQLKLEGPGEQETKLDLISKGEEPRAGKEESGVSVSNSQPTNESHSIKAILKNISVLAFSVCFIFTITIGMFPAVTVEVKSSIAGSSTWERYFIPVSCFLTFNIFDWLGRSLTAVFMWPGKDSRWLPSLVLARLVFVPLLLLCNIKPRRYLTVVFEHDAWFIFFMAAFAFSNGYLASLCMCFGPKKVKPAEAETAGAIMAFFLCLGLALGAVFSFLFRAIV
# measurement.description: Inhibition of human ENT1 transfected in nucleoside transporter-deficient pig PK-15 cells assessed as inhibition of [3H]-uridine uptake by liquid scintillation counter analysis
# Format: cell-based
pIC50: −log10 of the molar value.
quantity: pIC50

INSERT INTO assay_data (chemical_string, quantity, assay_result) VALUES
  ('Cc1cccc(Nc2nc(N)nc(CN3CCN(c4ccc(F)cc4)CC3)n2)c1', 'pIC50', 5.62),
  ('Nc1nc(CN2CCN(c3ccccc3F)CC2)nc(Nc2cccc3ccccc23)n1', 'pIC50', 4.74),
  ('COc1ccc(Nc2nc(N)nc(CN3CCN(c4ccccc4F)CC3)n2)cc1', 'pIC50', 6.23);
